target_entity: Cytochrome P450 2C9 (Homo sapiens)
Sequence (P11712 whole entry): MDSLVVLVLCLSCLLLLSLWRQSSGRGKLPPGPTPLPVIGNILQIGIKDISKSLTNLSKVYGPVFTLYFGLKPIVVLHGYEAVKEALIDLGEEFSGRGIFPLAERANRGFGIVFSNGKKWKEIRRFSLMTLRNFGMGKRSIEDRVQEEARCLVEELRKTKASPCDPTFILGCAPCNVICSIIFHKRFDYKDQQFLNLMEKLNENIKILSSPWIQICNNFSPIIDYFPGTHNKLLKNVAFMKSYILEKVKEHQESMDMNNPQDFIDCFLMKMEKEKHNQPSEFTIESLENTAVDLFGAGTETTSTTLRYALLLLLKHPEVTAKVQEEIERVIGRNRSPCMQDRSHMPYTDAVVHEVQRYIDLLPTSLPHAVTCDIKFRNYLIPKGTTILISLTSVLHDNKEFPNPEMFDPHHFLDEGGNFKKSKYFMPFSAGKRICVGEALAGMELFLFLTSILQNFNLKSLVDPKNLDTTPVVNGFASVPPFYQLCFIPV
pIC50: −log10 of the molar value.
test_readout: pIC50

compound | test_readout | result
COc1cc(C(=O)N2CCC3(CC2)CC(=O)c2c(cnn2C(C)C)C3)cc(-c2ccc(C(=O)O)cc2)n1 [CLESACOSTAT] | pIC50 | < 4.30

* * *

test_protocol: Drug uptake in human hepatocytes assessed as passive diffusion clearance at 1 uM up to 15 mins in presence of rifamycin SV by LC-MS/MS analysis
Format: ADME, cell-based, Hepatocyte
assay_context: 0.25 h

compound | CLH [µL/min/mg]
COc1cc(C(=O)N2CCC3(CC2)CC(=O)c2c(cnn2C(C)C)C3)cc(-c2ccc(C(=O)O)cc2)n1 [CLESACOSTAT] | 2.7
